Form field: Ki (one value per entry).
biological target: UniProt P25774; assay: Enzyme Assay: Recombinant human cathepsins (CatS, CatK, CatL) were purchased from a Enzo Life Sciences. All assays were carried out in 96-well format using a buffer of 50 mM KH2PO4, 50 mM NaCl, 2 mM EDTA, 0.5 mM DTT and 1% Triton-X-100, pH 6.5 for Cathepsin S and a buffer of 50 mM NaOAc, 10 mM EDTA, 1 mM DTT and 0.01% Triton-X-100, pH 5.5 for CatK/L/B. For CatS, the enzyme (0.0007 mU/well) was incubated with fluorogeninc substrate (Z-VVR-AMC, 5 μM) at RT for 10 min. For CatK the enzyme (0.00175 mU/well) was incubated with fluorogeninc substrate (Z-FR-AMC, 40 μM) at RT for 10 min. For CatL, the enzyme (0.000874 mU/well) was incubated with fluorogeninc substrate (Z-VVR-AMC, 40 μM) at RT for 10 min. Flourogenic substrate turnover was detected using a microplate reader (Synergy H4, BioTek). Ki values were calculated using the Cheng Prusoff equation (Cheng & Prosoff 1973).
Sequence (P25774 whole entry): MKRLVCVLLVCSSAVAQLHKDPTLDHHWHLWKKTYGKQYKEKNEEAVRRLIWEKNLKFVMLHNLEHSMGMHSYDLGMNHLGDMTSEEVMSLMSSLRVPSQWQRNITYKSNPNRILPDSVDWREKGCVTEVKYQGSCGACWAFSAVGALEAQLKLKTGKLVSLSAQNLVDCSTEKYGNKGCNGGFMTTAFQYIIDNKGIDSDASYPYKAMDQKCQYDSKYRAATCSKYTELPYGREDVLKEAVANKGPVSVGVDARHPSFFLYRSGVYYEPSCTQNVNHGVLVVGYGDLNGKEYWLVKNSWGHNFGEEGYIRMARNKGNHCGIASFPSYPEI
Please reply with the bare figure in nM and do not write the unit itself.

Reference set, count: 4
COc1ccc(-c2ccc(C(=O)N[C@H](C(=O)N3C[C@H](Cl)[C@H]4OCC(=O)[C@H]43)C3CCCCC3)s2)nn1 : 344
O=C(N[C@H](C(=O)N1C[C@H](Cl)[C@H]2OCC(=O)[C@H]21)C1CCCCC1)c1ccc(-c2cccnc2)o1 : 612
Cc1nccc(-c2ccc(C(=O)N[C@H](C(=O)N3C[C@H](Cl)[C@H]4OCC(=O)[C@H]43)C3CCCCC3)s2)n1 : 238
O=C(N[C@H](C(=O)N1C[C@H](Cl)[C@H]2OCC(=O)[C@H]21)C1CCCCC1)c1cnc(-c2ccnnc2)o1 : 527

stdin: What Ki value was documented for this molecule, `O=C(N[C@H](C(=O)N1C[C@H](Cl)[C@H]2OCC(=O)[C@H]21)C1CCCCC1)c1ccc(-c2ccncn2)o1` ?
stdout: 699

====

Form field: pKi (one value per entry).
biological target: Cathepsin K (Homo sapiens, UniProt P43235); assay: Enzyme Assay: Recombinant human cathepsins (CatS, CatK, CatL) were purchased from a Enzo Life Sciences. All assays were carried out in 96-well format using a buffer of 50 mM KH2PO4, 50 mM NaCl, 2 mM EDTA, 0.5 mM DTT and 1% Triton-X-100, pH 6.5 for Cathepsin S and a buffer of 50 mM NaOAc, 10 mM EDTA, 1 mM DTT and 0.01% Triton-X-100, pH 5.5 for CatK/L/B. For CatS, the enzyme (0.0007 mU/well) was incubated with fluorogeninc substrate (Z-VVR-AMC, 5 μM) at RT for 10 min. For CatK the enzyme (0.00175 mU/well) was incubated with fluorogeninc substrate (Z-FR-AMC, 40 μM) at RT for 10 min. For CatL, the enzyme (0.000874 mU/well) was incubated with fluorogeninc substrate (Z-VVR-AMC, 40 μM) at RT for 10 min. Flourogenic substrate turnover was detected using a microplate reader (Synergy H4, BioTek). Ki values were calculated using the Cheng Prusoff equation (Cheng & Prosoff 1973).
Sequence (P43235 whole entry): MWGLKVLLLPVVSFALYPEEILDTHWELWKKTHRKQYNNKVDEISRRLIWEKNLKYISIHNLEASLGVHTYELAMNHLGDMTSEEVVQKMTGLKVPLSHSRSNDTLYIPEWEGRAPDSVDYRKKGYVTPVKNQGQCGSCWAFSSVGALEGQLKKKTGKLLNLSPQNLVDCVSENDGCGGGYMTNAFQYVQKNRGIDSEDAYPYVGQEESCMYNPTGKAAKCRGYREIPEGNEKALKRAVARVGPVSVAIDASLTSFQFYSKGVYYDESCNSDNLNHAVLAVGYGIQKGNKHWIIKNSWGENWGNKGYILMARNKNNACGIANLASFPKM
Scale: pKi equals -log10([C]), with [C] in mol/L.

Reference set, count: 4
Cc1nccc(-c2ccc(C(=O)N[C@H](C(=O)N3C[C@H](Cl)[C@H]4OCC(=O)[C@H]43)C3CCCCC3)s2)n1 : 8.05
O=C(N[C@H](C(=O)N1C[C@H](Cl)[C@H]2OCC(=O)[C@H]21)C1CCCCC1)c1ccc(-c2ccncn2)o1 : 6.58
COc1ccc(-c2ccc(C(=O)N[C@H](C(=O)N3C[C@H](Cl)[C@H]4OCC(=O)[C@H]43)C3CCCCC3)s2)nn1 : 7.80
O=C(N[C@H](C(=O)N1C[C@H](Cl)[C@H]2OCC(=O)[C@H]21)C1CCCCC1)c1ccc(-c2cccnc2)o1 : 7.27

stdin: Provide value of pKi for this record tested with Cathepsin K (Homo sapiens, UniProt P43235): `O=C(N[C@H](C(=O)N1C[C@H](Cl)[C@H]2OCC(=O)[C@H]21)C1CCCCC1)c1cnc(-c2ccnnc2)o1`
stdout: 6.56

stdin: Provide value of pKi for this record tested with Cathepsin K (Homo sapiens, UniProt P43235): `O=C(N[C@H](C(=O)N1C[C@H](Cl)[C@H]2OCC(=O)[C@H]21)C1CCCCC1)c1nnc(-c2ccncc2)s1`
stdout: 7.85
